# System: Granta-519
# measurement_notes: Anti-tumor activity against human Granta-519 cells assessed as inhibition of cell viability incubated for 72 hrs by MTT assay
# Format: functional, cell-based
# condition_summary: Granta-519, 72 h
pIC50: −log10 of the molar value.
As shown below, each of these compounds has a reported pIC50 value.

[
  {
    "chem_smiles": "CC(C)S(=O)(=O)N1Cc2nc(-c3c[nH]c4ccccc34)nc(N3CCOC[C@H]3C)c2C1",
    "pIC50": 5.99
  },
  {
    "chem_smiles": "C[C@@H]1COCCN1c1nc(-c2c[nH]c3ccccc23)nc2c1CN(C(=O)C1CC1)C2",
    "pIC50": 5.79
  },
  {
    "chem_smiles": "C[C@@H]1COCCN1c1nc(-c2c[nH]c3ccccc23)nc2c1CN(S(=O)(=O)C1CC1)C2",
    "pIC50": 5.73
  }
]

----------
# experimental_target: Serine/threonine-protein kinase mTOR (Homo sapiens, UniProt P42345)
# measurement_notes: Inhibition of human full length recombinant mTOR in presence of [gamma-33P]ATP incubated for 40 mins by radiometric scintillation counting analysis

[
  {
    "chem_smiles": "CC(C)S(=O)(=O)N1Cc2nc(-c3c[nH]c4ccccc34)nc(N3CCOC[C@H]3C)c2C1",
    "experimental_target": "Serine/threonine-protein kinase mTOR (Homo sapiens, UniProt P42345)",
    "IC50, nM": 136
  }
]

----------
# Tested on: SW-620
# measurement_notes: Anti-tumor activity against human SW-620 cells assessed as inhibition of cell viability incubated for 72 hrs by MTT assay
# Format: functional, cell-based
# condition_summary: SW-620, 72 h

[
  {
    "chem_smiles": "C[C@@H]1COCCN1c1nc(-c2c[nH]c3ccccc23)nc2c1CN(S(=O)(=O)C1CC1)C2",
    "IC50, µM": 3.84
  },
  {
    "chem_smiles": "C[C@@H]1COCCN1c1nc(-c2c[nH]c3ccccc23)nc2c1CN(C(=O)C1CC1)C2",
    "IC50, µM": 3.96
  },
  {
    "chem_smiles": "CC(C)S(=O)(=O)N1Cc2nc(-c3c[nH]c4ccccc34)nc(N3CCOC[C@H]3C)c2C1",
    "IC50, µM": 2.15
  }
]

----------
Property: pIC50; scope: individual compounds
# Tested on: MDA-MB-468
# measurement_notes: Anti-tumor activity against human MDA-MB-468 cells assessed as inhibition of cell viability incubated for 72 hrs by MTT assay
# Assay type: functional, cell-based
# condition_summary: MDA-MB-468, 72 h
pIC50: −log10 of the molar value.

[
  {
    "chem_smiles": "C[C@@H]1COCCN1c1nc(-c2c[nH]c3ccccc23)nc2c1CN(C(=O)C1CC1)C2",
    "pIC50": 5.74
  },
  {
    "chem_smiles": "C[C@@H]1COCCN1c1nc(-c2c[nH]c3ccccc23)nc2c1CN(S(=O)(=O)C1CC1)C2",
    "pIC50": 5.76
  },
  {
    "chem_smiles": "CC(C)S(=O)(=O)N1Cc2nc(-c3c[nH]c4ccccc34)nc(N3CCOC[C@H]3C)c2C1",
    "pIC50": 5.85
  }
]
